The measurements presented in this section are drawn from the supplement of paper PMC12764529.

- experimentNotes: folding stability dG unfold from trypsin proteolysis; higher = more stable
Label class 1 for high-side folding stability dG unfold (at or above 2 kcal/mol) and class 0 for low-side folding stability dG unfold (below it).

# seq, group
measured = [
    ("SAGGSAGGSAGGKIEIKTFPDGYVLAKIEFPDEDKALVILAKVKPNPGKVLEAIIRPADSAGGSAGGSAGGS [r10_613_TrMRF]", "class 0"),
    ("SAGSITITIETLPDGTIRITIPYTSEEEAKKVAEEVAKEIAEKLGEEVIKFEVTPEDDDTLILTIPIKKSAG [r5_772_JUSTAS]", "class 0"),
    ("SAGGSAGGSAQPIPIKIRIRMRDDGKPQTFTFEVPVKPGATESTILDKIMKKFPGFRHIEIESAGGSAGGSA [r18_195_TrROS]", "class 0"),
    ("SAGGSAGGSAGVVLKEPKGGVPKTITEDPNHPGLYTTGSPDGTISTRPLEIKPEEEPVLLSAGGSAGGSAGG [r17_85_JUSTAS]", "class 0"),
    ("SAGGSAGGSAGGSSSSTVPLPDDTTLTVHTGSSSYTVTTTSPDGTSTTTTVSPATVAAALSAGGSAGGSAGG [r11_1068_JUSTAS]", "class 0"),
]

Now examine the next entry.
Does folding stability dG unfold meet or surpass 2 kcal/mol for SMSIELDAESIEEIADFLKKAIEDGNPDAKIRIELYPLGGEREEREYDSIDEIIAELKKGPARIRIELEPSA [r9_589_TrMRF] ? class 0

----------
- experimentNotes: folding stability dG unfold from trypsin proteolysis; higher = more stable
Label Fulfilled for high-side folding stability dG unfold (at or above 0.7 kcal/mol) and Not fulfilled for low-side folding stability dG unfold (below it).

These recorded examples may help you get a feel for the data.
# seq, group
measured = [
    ("SAGGSAGGSAGGSPVSPKIVTTDPGPNVITTVYYSPEDGKVLSTSTTVVPPLPPGEILTSAGGSAGGSAGGS [r10_1051_JUSTAS]", "Fulfilled"),
    ("SAGGSAGGSAGGMSVTVSREKLPDGSYLVTVTTEVGGGPVTTPYRVPPSLSSAEEVVEKLSAGGSAGGSAGG [r7_75_JUSTAS]", "Not fulfilled"),
    ("SAGGSAGGSANWYIRIHSPNGQPIWFPMKIKNVTPKGGEIEFKMRNPNGREMPFRVEIFPLESAGGSAGGSA [r18_163_TrROS]", "Fulfilled"),
    ("SAGGSAGGSAGGSMKIEIVTNDPKKAEEIKEKLEKEGYPKKKNPINIEVKEISEEELLKSAGGSAGGSAGGS [r4_281_JUSTAS]", "Not fulfilled"),
    ("SDETVELPTVYTLYFGKDGTPRYYITVTLGDGPVAMELPEVSPDVKDGDVVPVKVPSSVVTSYSVSSAPASA [r9_769_JUSTAS]", "Not fulfilled"),
]

Does folding stability dG unfold meet or surpass 0.7 kcal/mol for SAGGSAGGSGMTEVVAEKKYPNEVILVTKEPDSYYIVKVTLKDGKVVEKENLGKISPDDPSILSAGGSAGGS [r12_154_JUSTAS] ? Not fulfilled

Does folding stability dG unfold meet or surpass 0.7 kcal/mol for SAGMPEIVKVKVKIKVNIPVFDKNGKLIGLIPKEYEFEIEAPYEEIKNIIESLPENAEVVEILEIENESAGG [r19_114_TrMRF] ? Fulfilled

----------
- experimentNotes: folding stability dG unfold from chymotrypsin proteolysis; higher = more stable
Label condition met for high-side folding stability dG unfold (at or above 3 kcal/mol) and condition not met for low-side folding stability dG unfold (below it).

These recorded examples may help you get a feel for the data.
# seq, group
data = [
    ("SAGGLKIPVGSAEDALKAFEAIEEPVLVRTKDRKFVRELKLEDIKELVEKGVEFEFVLPSELPEEERKESAG [r5_677_TrMRF]", "condition not met"),
    ("TTKTYTTPVIKKMTVTFDKTEGNEATLTITATLPDGTPVTLPFPLTLETGKLDPAVVEAAIKAAVATAIAQS [r1_124_JUSTAS]", "condition not met"),
]

Does folding stability dG unfold meet or surpass 3 kcal/mol for SAGGSAWEFVKEIAKELQEKHPGYQVNVDVEPQRNPENDRRYIRIWIHVQDKNGEIRRTWEIMIPFSAGGSA [r15_1048_TrROS] ? condition met

Does folding stability dG unfold meet or surpass 3 kcal/mol for SAGGSAGGSAGGSKSIYISPDDPNNIRTPDDGEPFKGMPIEEAKKEGIEPRGPNAFRIPSAGGSAGGSAGGS [r4_306_TrROS] ? condition not met

Does folding stability dG unfold meet or surpass 3 kcal/mol for SAGGSAGGSAMWVIRIWFPNGNKRTIPIPPNEKLTAEEILDEFRIPNGREMRILRVEIWPYSAGGSAGGSAG [r3_465_TrROS] ? condition not met

Does folding stability dG unfold meet or surpass 3 kcal/mol for SAGGSAGGSNMPIKNVELHPLPNGWYLIKIRYGGKTRTFLFPPGAPFEIPLPPGMEIDIYPLNSAGGSAGGS [r12_373_TrROS] ? condition met

----------
- experimentNotes: folding stability dG unfold from chymotrypsin proteolysis; higher = more stable
The entries below come with measured folding stability dG unfold values attached.
Output spec: scalar in kcal/mol, unitless text.

# seq, folding stability dG unfold, kcal/mol
measured = [
    ("SAGGSAGGSAGMEPIRVTVTTQDTATGTTTTTTVTVPTDVPVEAVLAALDPALVTAVTVESAGGSAGGSAGG [r11_386_JUSTAS]", -0.172),
    ("SAGKTVEIKVTLKITRYEKLPDGSVKKEVKTLTITVTMSEEELNKEEIKNALKELLEKLPPDVKKIEITSAG [r5_849_TrROS_Hall]", 4.63),
    ("SAGGMNISIEPIGRDNDRWYYMITFPGDANEIKDFIEEFLPPGLPIKVKVLEVDPENGHVTVMIEIPRSAGG [r13_491_TrROS]", 3.58),
    ("SAGGSAGGKWIHINPNSYNIKIQDPGSGKEEEIQFDSPEELIDEIKKQFPGVPVEIHPNGWFKISAGGSAGG [r6_288_TrROS]", 0.563),
    ("SAGGSAGGSAGGDDDWRIMINIEIWPYPNYVRIRFPIMIIPPDGKLIGSVEVTFWIPANDSAGGSAGGSAGG [r7_812_TrROS]", 3.84),
    ("SAGGSAGGSAGTMTAEEIAKALGAKVVEVYPDKVVIEIEVDGKKYRITINEDGEVTVEEVSAGGSAGGSAGG [r17_252_TrROS_Hall]", 4.47),
]

Then there is this sequence:
The measured folding stability dG unfold associated with SAGGSAGGSAGGSAGVIVSLSPAPPSADTVVELPKGVTVTVTTVNGERVLTTLVPEALLSAGGSAGGSAGGS [r10_355_JUSTAS] reads 0.00971

----------
- experimentNotes: folding stability dG unfold from chymotrypsin proteolysis; higher = more stable
readoutName: folding stability dG unfold (kcal/mol)
Output spec: scalar in kcal/mol, unitless text.

# seq, unitsText, folding stability dG unfold
records = [
    ("SAGGSAGGSWKPIPYKIKMTDGDGEKHEFPVQIWVAPEDGWVFIDFPNGHPFWIPANNIKIEPSAGGSAGGS [r12_256_TrROS]", "kcal/mol", 1.88),
    ("SAGGSAGGGMKVKKIEIKKDPNNPNIYTITIELEDEPIEYTVPPSTPTTIKKPGGKPLYSSPLPSAGGSAGG [r6_922_JUSTAS]", "kcal/mol", 0.986),
    ("SAGGSAGGSAGGMFVRIEVDGKTILLEADSLEEALAAIRALLPPGEKVKVELVSEEELKSAGGSAGGSAGGS [r10_1167_TrROS_Hall]", "kcal/mol", 3.04),
]

The measured folding stability dG unfold associated with SMIEELSDEEKVALAKELAEEIKKAREGGKPEEIPELIKRLKEVLEAASPPVQEEVLALIKEIKIPPKELSA [r9_182_JUSTAS] reads 1.7

The measured folding stability dG unfold associated with SSVTLLVPVEVTLPTPEGKGPSVTRFVPVPVPEEELRERLIEELREELKKKGEPDVTEEELKDPEVLEELSA [r9_263_JUSTAS] reads 0.51

The measured folding stability dG unfold associated with SAGGSAGGSPSVLDQVKRMIQDRIQERFGLPPGYTVQVTIDVEIDDGGIRIKKIKAEIQPPDNSAGGSAGGS [r12_481_TrROS] reads 2.42

The measured folding stability dG unfold associated with SAGGSAGGGMPPVVTTEISVEEVRPDERDENGNRYFLVTTTLTFPDSTVTTERWLEEEELEELLSAGGSAGG [r6_724_JUSTAS] reads 0.912

----------
- experimentNotes: folding stability dG unfold from chymotrypsin proteolysis; higher = more stable
Label 1 for high-side folding stability dG unfold (at or above 3 kcal/mol) and 0 for low-side folding stability dG unfold (below it).

These recorded examples may help you get a feel for the data.
# seq, group
data = [
    ("SAGGKMLVKIKIKVTIYDKNGKPVKEVELELVFPSLEDLLNALKSLSPEKIKKVEIVSIEEIDEEDLSAGGS [r16_677_TrROS_Hall]", 1),
    ("SAGGSAGGSAGSEIAEAIKKALEEAGVKEVKIEKVGPEPNVFRITFENGETIEITLPEDLSAGGSAGGSAGG [r11_765_TrROS_Hall]", 0),
]

Does folding stability dG unfold meet or surpass 3 kcal/mol for SAGGMIRITTEDGEELSEEELAELEEAIRKGDLDEAVKKIEELLRERFGKEIKIKVEVFFPPPPPPESAGGS [r8_48_TrROS_Hall] ? 1

Does folding stability dG unfold meet or surpass 3 kcal/mol for SAGMPEIVKVKVKIKVNIPVFDKNGKLIGLIPKEYEFEIEAPYEEIKNIIESLPENAEVVEILEIENESAGG [r19_114_TrMRF] ? 0

Does folding stability dG unfold meet or surpass 3 kcal/mol for SAGGSAGGSASKTIFIPAAVVAANPEKAVEFAEKVREEFEKKGLSVKTEVLPDGGIGIHVGSAGGSAGGSAG [r3_75_TrMRF] ? 0

Does folding stability dG unfold meet or surpass 3 kcal/mol for SAGGSAGGDESSTPPVTTTSTTPLPDGSTVTVTSTTTYPDSTTTTTKTYSNGSTTTSTTTTPGSSAGGSAGG [r6_910_JUSTAS] ? 0
